All figures here come from the supplement of paper PMC5908809.

Known relative IC50 of a selection of compounds
test system: NKL (IL-2 2.5 ng/mL); assay: relative IC50 (inflection point of fitted viability curve, relative to fitted max inhibition); higher = less sensitive; conditions: 72 h
Respond numerically; units are nM and should not be typed.

Study these solved cases before continuing.
compound	relative IC50 (nM)
CCNC(=O)c1noc(-c2cc(C(C)C)c(O)cc2O)c1-c1ccc(CN2CCOCC2)cc1 [Luminespib]	3.28
Cc1nc(Nc2n[nH]c3c2CN(C(=O)N[C@H](CN(C)C)c2ccccc2)C3(C)C)c2sccc2n1	503

q: Return reported relative IC50 for target or system NKL (IL-2 2.5 ng/mL), item CN(C)Cc1ccc(S(=O)(=O)n2ccc(/C=C/C(=O)NO)c2)cc1 [Resminostat] .
a: 258

* * *

test system: normal primary NK cells, pool 2 (3 donors) (IL-2 2.5 ng/mL); experiment: percent inhibition of viability; higher = more inhibition; settings: 72 h; 10000 nM
endpoint label: percent inhibition of viability (%)
Respond numerically; units are % and should not be typed.

compound	endpoint label	result number
Cc1nc(N)sc1-c1ccnc(Nc2ccc(N3CCOCC3)cc2)n1 [CYC-116] (max concentration tested 10000 nM)	percent inhibition of viability	68.8
CN(C[C@@H]1COCCO1)S(=O)(=O)Nc1ccc2ccc3ncc(-c4cnn(C)c4)cc3c(=O)c2c1 [MK-2461] (max concentration tested 10000 nM)	percent inhibition of viability	16.6
Cc1nc(C(=O)NCC(=O)O)c(O)c2ccc(Oc3ccccc3)cc12 [FG-4592] (max concentration tested 10000 nM)	percent inhibition of viability	10.4
CNC(=O)c1nn(C)c2c1C(C)(C)Cc1cnc(Nc3ccc(N4CCN(C)CC4)cc3)nc1-2 [Milciclib] (max concentration tested 10000 nM)	percent inhibition of viability	96.4
CC(C)N(CCCNC(=O)Nc1ccc(C(C)(C)C)cc1)C[C@H]1O[C@@H](n2cc(Br)c3c(N)ncnc32)[C@H](O)[C@@H]1O [SGC0946] (max concentration tested 10000 nM)	percent inhibition of viability	25.8

# ---- query compound ----
q: Look up percent inhibition of viability of S=C(NCc1ccc2c(c1)OCO2)N1CCN(c2ncnc3c2oc2ccccc23)CC1 [Amuvatinib] (max concentration tested 10000 nM) and report it.
a: 69.2

* * *

tested on: SNK-6 (IL-2 2.5 ng/mL); assay: percent inhibition of viability; higher = more inhibition; conditions: 72 h; 1000 nM
Known percent inhibition of viability of a selection of compounds
Respond numerically; units are % and should not be typed.

Study these solved cases before continuing.
compound	endpoint label	result number
O=C(O)c1ccc2c(c1)nc(Nc1cccc(Cl)c1)c1ccncc12 [Silmitasertib] (max concentration tested 10000 nM)	percent inhibition of viability	-10.8
O=NN(CCCl)C(=O)NC1CCCCC1 [Lomustine] (max concentration tested 10000 nM)	percent inhibition of viability	6.58
CC(C)C[C@H](NC(=O)[C@@H](COC(C)(C)C)NC(=O)[C@H](Cc1ccc(O)cc1)NC(=O)[C@H](CO)NC(=O)[C@H](Cc1c[nH]c2ccccc12)NC(=O)[C@H](Cc1cnc[nH]1)NC(=O)[C@@H]1CCC(=O)N1)C(=O)N[C@@H](CCCNC(=N)N)C(=O)N1CCC[C@H]1C(=O)NNC(N)=O [Goserelin] (max concentration tested 10000 nM)	percent inhibition of viability	-13.4

# ---- query compound ----
q: Look up percent inhibition of viability of Oc1c2ccccc2c2c3c(cccc13)N=N2 (max concentration tested 100000 nM) and report it.
a: -11.4
